Please go through the items and note down their Kd.
Biological target: Acetylcholine-binding protein (Lymnaea stagnalis, UniProt P58154)
Sequence (P58154 whole entry): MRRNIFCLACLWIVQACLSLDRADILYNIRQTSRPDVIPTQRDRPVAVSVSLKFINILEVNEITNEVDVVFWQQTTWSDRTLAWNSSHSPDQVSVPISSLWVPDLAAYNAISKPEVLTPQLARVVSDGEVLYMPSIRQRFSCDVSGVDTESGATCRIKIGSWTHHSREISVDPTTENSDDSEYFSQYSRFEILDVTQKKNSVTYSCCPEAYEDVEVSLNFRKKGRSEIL
Answers are plain numbers, in µM.

1. O[C@@H]1C2CCN(CC2)[C@H]1Cc1cccnc1 : 0.316

Please state, for each entry, its recorded Kd.
1. O=C(Nc1ccccc1)N[C@H]1CN2CCC1CC2
2. O=C(Nc1ccccc1)OCCCc1cccnc1
3. O=C(Nc1ccc(Br)cc1)N[C@H]1CN2CCC1CC2
4. O=C(N[C@@H]1C2CCN(CC2)[C@H]1Cc1cccnc1)c1cc2ccccc2o1
5. O=C(Nc1ccc(Br)cc1)OCCCc1cccnc1
6. O=C(N[C@@H]1C2CCN(CC2)[C@H]1Cc1cccnc1)c1cccs1
7. N[C@H]1CN2CCC1CC2

1. 18.6
2. 741
3. 4.9
4. 0.02
5. 50.1
6. 0.24
7. 74.1

Please state, for each entry, its recorded Kd.
1. O=C(N[C@@H]1C2CCN(CC2)[C@H]1Cc1cccnc1)Oc1ccccc1
2. O=C(Nc1ccc(Br)cc1)O[C@H]1CN2CCC1CC2
3. O=C(Nc1ccccc1)N[C@@H]1C2CCN(CC2)[C@H]1Cc1cccnc1
4. NCCc1cccnc1

1. 0.347
2. 4.47
3. 0.871
4. 148

Please state, for each entry, its recorded Kd.
1. O=C(Nc1ccc(Br)cc1)N[C@@H]1C2CCN(CC2)[C@H]1Cc1cccnc1
2. O=C(N[C@H]1CN2CCC1CC2)c1ccc(Cl)cc1
3. N[C@@H]1C2CCN(CC2)[C@H]1Cc1cccnc1
4. O=C(Nc1ccccc1)O[C@@H]1C2CCN(CC2)[C@H]1Cc1cccnc1
5. CN(C)CCc1cccnc1

1: 0.437; 2: 3.63; 3: 0.55; 4: 0.1; 5: 6.03

Please state, for each entry, its recorded Kd.
1. O=C(Nc1ccccc1)O[C@H]1CN2CCC1CC2
2. O=C(N[C@@H]1C2CCN(CC2)[C@H]1Cc1cccnc1)c1ccccc1

1: 29.5; 2: 0.219

These measurements were taken from ChEMBL document CHEMBL1255197.
